test system: P388 leukemia ip, CD2F1 mice, survival T/C; assay: NCI In Vivo Anticancer Drug Screen. Data for tumor model P388 Leukemia (intraperitoneal) in CD2F1 (CDF1) mice; conditions: endpoint: median survival time; dose: 100.0 mg/kg/injection; schedule: Q01DX009 (ip); vehicle: Klucel (hydroxypropylcellulose) (HPC); higher = longer survival
Inconclusive results and toxic doses are left out.
readout: T/C

>>> result("COc1cc(/C=C2\\C(=O)C3CCN2CC3)cc(OC)c1OC")
"93 % of control"
>>> result("NC(=O)NCCSC1(SCCNC(N)=O)CCCCC1")
"103 % of control"

The reported P388 leukemia ip, CD2F1 mice, survival T/C T/C of Cc1cccc2c(/C=C/c3ccc(N(C)C)cc3)ccnc12 is 117 % of control

The reported P388 leukemia ip, CD2F1 mice, survival T/C T/C of CCOC(=O)c1ccc(NC(=O)Nc2cc(Cl)ncn2)cc1 is 99 % of control

The reported P388 leukemia ip, CD2F1 mice, survival T/C T/C of Cc1ccnc(NC(=O)Nc2cc(Cl)ccc2Cl)c1 is 87 % of control

The reported P388 leukemia ip, CD2F1 mice, survival T/C T/C of Cc1ccc(S(=O)(=O)N2OC2c2ccccc2C)cc1 (stereo unspecified) is 106 % of control
